All values here come from the supplement of paper PMC6555819.

test system: LXRb:RXRa (NR concentration 270 nM, RXRa partner concentration 90 nM); assay: PBM binding z-score (relative to random genomic background probes); higher = stronger binding; sequences stand for … in GC…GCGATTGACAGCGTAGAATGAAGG
Measured endpoint: PBM binding z-score
Give bare numbers.

Solved cases below.
Sequence chain	PBM binding z-score
CAAACTCGGTCACGAAAGGTCAAAGTCGAATGAC	6.5
ATATGTAGGTTTGCTGGGGTCATTCAGACTAGGC	4.47
AGAACGAGGGCACGCTGAATTGATAGCAGAGTAG	0.0938
CCTTACGGGTCACGAAGTTATAGCACGACGAGCG	3.39
CCGACTGGGGCACGGTTACCATAACGCACAGCCA	-0.211
GATACAGGGTCAAGTCCAGAGTACGCGTATTGAT	4.3

Hi! Can you tell me PBM binding z-score for each of these sequences?
1. AGAATGAGGTTACCAATGATCAGGGAAACGCTTG
2. CCTATTAGTTGACCATAAGGGCAAGCGAAGCTCG
3. TAGCCTAGGTCATGCGTGCCAGTATAGTGTCGGC
4. GATTGTAGATCAAGGTTAAGAAAGACTAAGCTAA

Return:
[1.67, 0.218, 1.75, 0.458]

Quick request: PBM binding z-score for each listed item, please.
1. GCTAGCAGGCCCTTTGGGTCACTCAATGACGGGC
2. CCTTACGGGTCACGAGATTATAGCACGACGAGCG

Return:
1: -0.325; 2: 3.37
